Measured values drawn from the supplement of paper PMC9170038 for this set.

System: K4 kissing-loop RNA reporter;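 further: bound reporter read as fluorescence of individual clusters on recovered sequencing chips by microscopy, with normalized cluster intensities fitted with a binding model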
test-description: apparent KD of K4 kissing-loop reporter; higher = weaker reporter binding
run-parameters: Eterna round: R107; input ligand: none
Criterion: apparent KD of K4 kissing-loop reporter meeting or surpassing 200 nM. Met: Fulfilled. Not met: Not fulfilled.

biopolymer-sequence	experimental-system	category-label
UUAGUCUAGAGAAGGAGCGAGUGAUGUUUGCUAAGCUAUAUAAUAAAAUAUAGCAAAUUUACUCAGGUAGGUCGCUCUAGACAUU [AK3 Exc Arginine B]	K4 kissing-loop RNA reporter	Not fulfilled

query: Item GGGAGUAGUGCGGCCGCCACUGUGAAAGUAGAAGAAUAUAGUGAUGUUAUAUAGGAACAAAAGAAUAGGACCGGGCAUUAGAUUU [SSTRyptB.X] with apparent KD of K4 kissing-loop reporter of 200 nM or above?
result: Fulfilled

query: Threshold query (apparent KD of K4 kissing-loop reporter >= 200 nM) on CCGGAUUAUGCGGCCGCCACUGAGAAAUUGGAGGUACGCCCUCCCGAUAGUGAUGUUAUCCAUUACAGGACCGGGCAUCUCCUCU [theeternabot_sameState_KL_Trp_B_23]
result: Fulfilled
